Origin of measurements: ChEMBL document CHEMBL4840363

# Test system: HepG2
# MEASUREMENT PROTOCOL: Cytotoxicity against human HepG2 cells assessed as reduction in cell viability by MTT assay
# Type: functional, cell-based
Provide the reported IC50 of each item.

What does the record list as IC50 for COc1cccc2c1[C@H](O)[C@]13C=C[C@]4(O)CC(C)=CC(=O)[C@@H]4[C@]1(O3)C2=O ?
> 20 µM

Which value of IC50 has been reported for Cc1cc(O[C@H]2O[C@@H](C)[C@H](O)[C@@H](O)[C@H]2O)c2c3c(ccc2c1)C(=O)c1c(O)cccc1[C@@H]3O in the records?
> 20 µM

Entry COc1cccc2c1[C@H](O)[C@]13C=C[C@]4(O)CC(C)=CC(=O)[C@@H]4[C@]1(O3)[C@H]2O : reported IC50 = ?
> 20 µM

* * *

# Test system: HCT-116
# MEASUREMENT PROTOCOL: Cytotoxicity against human HCT-116 cells assessed as reduction in cell viability by MTT assay
# Type: functional, cell-based
Task for the reader: assign each of the following molecules its reported IC50.

What value of IC50 has been recorded for this entry: Cc1cc(O[C@H]2O[C@@H](C)[C@H](O)[C@@H](O)[C@H]2O)c2c3c(ccc2c1)C(=O)c1c(O)cccc1[C@@H]3O
> 20 µM

Given the molecule COc1cccc2c1[C@H](O)[C@]13C=C[C@]4(O)CC(C)=CC(=O)[C@@H]4[C@]1(O3)[C@H]2O , what is its reported IC50?
> 20 µM

# query: IC50 of entry COc1cccc2c1[C@H](O)[C@]13C=C[C@]4(O)CC(C)=CC(=O)[C@@H]4[C@]1(O3)C2=O
> 20 µM

* * *

Could you please report measured IC50 for the items listed next?
# Test system: MCF7
# MEASUREMENT PROTOCOL: Cytotoxicity against human MCF7 cells assessed as reduction in cell viability by MTT assay
# Assay type: functional, cell-based

Can you share its IC50? I mean this compound: COc1cccc2c1[C@H](O)[C@]13C=C[C@]4(O)CC(C)=CC(=O)[C@@H]4[C@]1(O3)C2=O
> 20 µM

For COc1cccc2c1[C@H](O)[C@]13C=C[C@]4(O)CC(C)=CC(=O)[C@@H]4[C@]1(O3)[C@H]2O , what is its reported IC50?
> 20 µM

So what's the measured IC50 for this one? Cc1cc(O[C@H]2O[C@@H](C)[C@H](O)[C@@H](O)[C@H]2O)c2c3c(ccc2c1)C(=O)c1c(O)cccc1[C@@H]3O
> 20 µM
